EXPERIMENT NOTES: Particle size and PDI by dynamic light scattering (Malvern Zetasizer)
Format: physicochemical
TEST SETTINGS: LNP formulation with PLK1 siRNA; helper, neutral and stealth lipid, molar ratio and N/P as in the table
Description: Unless indicated otherwise, all sizes referred to herein are the average sizes (diameters) of the fully formed nanoparticle, as measured by dynamic light scattering on a Malvern Zetasizer. […] The acronym PDI stands for polydispersity index. Unless indicated otherwise, all PDIs referred to herein are the PDI of the fully formed nanoparticle, as measured by dynamic light scattering on a Malvern Zetasizer. […]
Item-by-item account of Final size (nm)
Field: numeric (nm). Do not append units.

// known answers, use as guide
| COMPOUND | MEASURED PARAMETER | ASSAY RESULT |
| --- | --- | --- |
| CCCCC/C=C\C/C=C\CCCCCCCCOC[C@@H](CN1CCC[C@@H]1C)OCCCOC(=O)CCC(=O)O[C@H]1CC[C@@]2(C)C(=CCC3C2CC[C@@]2(C)C3CC[C@@H]2[C@H](C)CCCC(C)C)C1 (stereo partly shown) [E0161] | Final size (nm) | 101.4 |
| CCCCCCCC/C=C\CCCCCCCCOCC(CN1CCOCC1)OCCOCCOC(=O)CCC(=O)O[C@H]1CC[C@@]2(C)C(=CC[C@H]3[C@@H]4CC[C@H]([C@H](C)CCCC(C)C)[C@@]4(C)CC[C@@H]32)C1 (stereo partly shown) [E0152] | Final size (nm) | 121.3 |
| CCCCCCCC/C=C\CCCCCCCCOCC(CN1CC[C@@H]2CCCC[C@H]2C1)OCCOCCO[C@H]1CC[C@@]2(C)C(=CC[C@H]3[C@@H]4CC[C@H]([C@H](C)CCCC(C)C)[C@@]4(C)CC[C@@H]32)C1 (stereo partly shown) [E0120] | Final size (nm) | 87 |

Request: Report Final size (nm) for CCCCC/C=C\C/C=C\CCCCCCCCOCC(CN1CCOCC1)OCCCOCCCO[C@H]1CC[C@@]2(C)C(=CC[C@H]3[C@@H]4CC[C@H]([C@H](C)CCCC(C)C)[C@@]4(C)CC[C@@H]32)C1 (stereo partly shown) [E0093] please.
Result: 82.42

###

EXPERIMENT NOTES: Particle size and PDI by dynamic light scattering (Malvern Zetasizer)
Format: physicochemical
TEST SETTINGS: lipid/no neutral lipid/CHOL/AVANTI 880150P 50/0/46/4, N/P 3.43
Item-by-item account of PDI
Please respond with just the number, no unit label.

| COMPOUND | MEASURED PARAMETER | ASSAY RESULT |
| --- | --- | --- |
| CCCCC/C=C\C/C=C\CCCCCCCCOCC(CN1CCC[C@@H]1C)OCCOCCO[C@H]1CC[C@@]2(C)C(=CCC3C2CC[C@@]2(C)C3CC[C@@H]2[C@H](C)CCCC(C)C)C1 (stereo partly drawn) [E0048] | PDI | 0.115 |
| CCCCC/C=C\C/C=C\CCCCCCCCOCC(CN1CCCC1)OCCOCCO[C@H]1CC[C@@]2(C)C(=CC[C@H]3[C@@H]4CC[C@H]([C@H](C)CCCC(C)C)[C@@]4(C)CC[C@@H]32)C1 (stereo partly drawn) [E0015] | PDI | 0.05 |
| CCCCC/C=C\C/C=C\CCCCCCCCOCC(CN1CC[C@H]2OC(C)(C)O[C@H]2C1)OCCOCCO[C@H]1CC[C@@]2(C)C(=CCC3C2CC[C@@]2(C)C3CC[C@@H]2[C@H](C)CCCC(C)C)C1 (stereo partly drawn) [E0009] | PDI | 0.16 |
| CCCCC/C=C\C/C=C\CCCCCCCCOCC(CN1CCC(O)C1)OCCOCCO[C@H]1CC[C@@]2(C)C(=CC[C@H]3[C@@H]4CC[C@H]([C@H](C)CCCC(C)C)[C@@]4(C)CC[C@@H]32)C1 (stereo partly drawn) [E0045] | PDI | 0.25 |
| CCCCC/C=C\C/C=C\CCCCCCCCOCC(CN1CCc2ccccc2C1)OCCOCCO[C@H]1CC[C@@]2(C)C(=CC[C@H]3[C@@H]4CC[C@H]([C@H](C)CCCC(C)C)[C@@]4(C)CC[C@@H]32)C1 (stereo partly drawn) [E0001] | PDI | 0.16 |

// next item, PDI requested
Request: Report PDI for CCCCC/C=C\C/C=C\CCCCCCCCOCC(CN1CCC(N2CCCCC2)CC1)OCCOCCO[C@H]1CC[C@@]2(C)C(=CCC3C2CC[C@@]2(C)C3CC[C@@H]2[C@H](C)CCCC(C)C)C1 (stereo partly drawn) [E0004] please.
Result: 0.201
